- Tested on: Klebsiella aerogenes
- assayMethodText: Antibacterial activity against Klebsiella aerogenes MB1503 assessed as growth inhibition
- Assay type: functional
Measured MIC of individual entries
Please answer using the number first and the unit second.

Record excerpt, results attached:
CC1(C)C2CCC(C2)C1CCC(CCC1C2CCC(C2)C1(C)C)NCCCNCCCNCCCN.Cl (stereo not given)    30 µg/mL
Cl.NCCCNCCCNC(CCC1CCCCC1)CCC1CCCCC1    6 µg/mL
CC(C)(C)c1ccc(CCCC(CCCc2ccc(C(C)(C)C)cc2)NCCNCCNCCN)cc1.Cl    50 µg/mL
Cl.NCCCNCCCNC(CC1CCCCC1)CC1CCCCC1    8 µg/mL
CC(C)c1ccc(CCCC(CCCc2ccc(C(C)C)cc2)NCCNCCNCCN)cc1.Cl    60 µg/mL
Cl.NCCNCCNCCNC(CCC1CCCCC1)CCC1CCCCC1    15 µg/mL
Cc1ccc(C(C)(C)C)cc1CCCC(CCCc1cc(C(C)(C)C)ccc1C)NCCCNCCCNCCCN.Cl    200 µg/mL
CN(CCCNCCCN)C(CCC1CCCCC1)CCC1CCCCC1.Cl    4 µg/mL

**Query** Which MIC is reported for this molecule? CC1(C)C2CCC(C2)C1CCC(CCC1C2CCC(C2)C1(C)C)NCCN(CCN)CCN.Cl (stereo not given)
**Result** 8 µg/mL

**Query** Would you kindly repeat that for Cc1ccc(C(C)(C)C)cc1CCCC(CCCc1cc(C(C)(C)C)ccc1C)NCCNCCNCCN.Cl ?
**Result** 10 µg/mL

* * *

- Tested on: Bordetella bronchiseptica
- assayMethodText: Antibacterial activity against Bordetella bronchiseptica MB3551 assessed as growth inhibition
- Type: functional
The following compounds are listed with their measured MIC values.
Numbers only; they are read as µg/mL.

CC1(C)C2CCC(C2)C1CCC(CCC1C2CCC(C2)C1(C)C)NCCNCCN.Cl (stereo not given)    4
CC1(C)C2CCC(C2)C1CCC(CCC1C2CCC(C2)C1(C)C)NCCNCCNCCN.Cl (stereo not given)    10
CC1(C)C2CCC(C2)C1CCC(CCC1C2CCC(C2)C1(C)C)NCCCNCCCNCCCN.Cl (stereo not given)    2
Cl.NCCCNCCCNC(CC1CCCCC1)CC1CCCCC1    6
CC(C)(C)c1ccc(CCC(CCc2ccc(C(C)(C)C)cc2)NCCCNCCCN)cc1.Cl    4

**Query** So what's the measured MIC for this one? CC1(C)C2CCC(C2)C1CCC(CCC1C2CCC(C2)C1(C)C)NCCCNCCNCCCN.Cl (stereo not given)
**Result** 4

**Query** And for CC(C)(C)c1ccc(CCCC(CCCc2ccc(C(C)(C)C)cc2)NCCCNCCCN)cc1.Cl ?
**Result** 8

**Query** Ok, now Cc1ccc(CCC(CCc2ccc(C)cc2)NCCCNCCCN)cc1.Cl
**Result** 6

**Query** Next up: CC(C)c1ccc(CCCC(CCCc2ccc(C(C)C)cc2)NCCCNCCCN)cc1.Cl
**Result** 10

**Query** Let us now turn to CC(C)(C)c1ccc(CCCC(CCCc2ccc(C(C)(C)C)cc2)NCCNCCNCCN)cc1.Cl
**Result** 60

* * *

- assayMethodText: Lipophilicity, log P of the compound
- conditionsUsed: octanol/water
endpoint: logP

**Query** Can you share its logP? I mean this compound: NCCNCCNCCN
**Result** -0.82

* * *

- System: Klebsiella aerogenes
- assayMethodText: Antibacterial activity against Klebsiella aerogenes MB1503 assessed as growth inhibition
- Format: functional
Measured MIC, listed per entry for reference.

CC(C)c1ccc(CCCC(CCCc2ccc(C(C)C)cc2)NCCCNCCCN)cc1.Cl    20 µg/mL
Cl.NCCCNCCCNC(CCc1ccc2ccccc2c1)CCc1ccc2ccccc2c1    20 µg/mL

Okay, next one:
**Query** # query: MIC of entry Cl.NCCCNCCCNC(CCCCC1CCCCC1)CCCCC1CCCCC1
**Result** 20 µg/mL

The measured values listed here are drawn from ChEMBL document CHEMBL3243989.
